B1: Twister Ribozyme (parent)
chain: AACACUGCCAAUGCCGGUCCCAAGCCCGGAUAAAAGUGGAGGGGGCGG

# Variants of: B1
# method description: self-cleavage, relative activity (ratio to wild type); higher = more cleavage; co-transcriptional
Our labelling divides records by self-cleavage into ranges: band A: < 0.1; band B: ≥ 0.1 and < 0.3; band C: ≥ 0.3

sequence content: AACACUGCCAAGGCCGGUCCCAAGCGCGGAUAAAAGUGGAGGGGGCGG [U12G C26G]
label value: band C

sequence content: AACACUGCCUAUGCCGGUCCCAAGCCCGGAUAAAAGUGGAGGGGGCGU [A10U G48U]
label value: band C

stdin: Into which category would you place AACACUGCCAACGCCGUUCCCAAGCCCGGAUAAAAGUGGAGGGGGCGG [U12C G17U] ?
stdout: band B

stdin: Into which category would you place AACACUGCCAAUGCCGGUCCCAAUCCCGGAUAAAAGUGGAGUGGGCGG [G24U G42U] ?
stdout: band A

stdin: Into which category would you place ACCACUGCCAAUGCCGGUCCCAAGCCCGGAUAAAGGUGGAGGGGGCGG [A2C A35G] ?
stdout: band A
